Source of measurements: patent US7182945

Biological target: T1, human leukocyte elastase (hLE) (human), P08246
T1 chain: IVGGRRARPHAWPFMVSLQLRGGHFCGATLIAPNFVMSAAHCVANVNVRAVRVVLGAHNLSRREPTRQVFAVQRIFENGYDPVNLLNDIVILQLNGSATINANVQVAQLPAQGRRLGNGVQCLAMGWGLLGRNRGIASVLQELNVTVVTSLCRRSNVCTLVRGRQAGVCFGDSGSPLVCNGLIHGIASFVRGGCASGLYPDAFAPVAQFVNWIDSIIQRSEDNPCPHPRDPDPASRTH
Conditions: modification not given
Recorded Endpoint: pKi
Answers are plain numbers, as −log10 of the molar value.

IN: Recorded pKi of ILFEVPEVTVAPVHI [CRP82-96 (peptide 10)] , please.
OUT: 4.26
